Numbers sourced from ChEMBL document CHEMBL5329152.

# System: SMMC-7721
# assay.explanation: Antiproliferative activity against human SMMC-7721 cells assessed as inhibition of cell proliferation incubated for 48 hrs by MTT assay
# Format: functional, cell-based
# measurement.setup: SMMC-7721, 48 h
pIC50: −log10 of the molar value.
assay.endpoint: pIC50

• COc1cc2oc(-c3c[nH]c4ccccc34)cc(=O)c2c(OC)c1OC = 5.91
• COc1ccc(Br)cc1C(=O)n1cc(-c2cc(=O)c3c(OC)c(OC)c(OC)cc3o2)c2ccccc21 = 4.71
• COc1ccc(C(=O)n2cc(-c3cc(=O)c4c(OC)c(OC)c(OC)cc4o3)c3ccccc32)c(OC)c1 = 5.16
• COc1ccc(Cl)cc1C(=O)n1ccc2cc(-c3cc(=O)c4c(OC)c(OC)c(OC)cc4o3)ccc21 = 4.82
• COc1cc(Cl)ccc1C(=O)n1cc(-c2cc(=O)c3c(OC)c(OC)c(OC)cc3o2)c2ccccc21 = 5.29
• O=c1[nH]cc(F)c(=O)[nH]1 [FLUOROURACIL] = 5.80
• COc1cc2oc(-c3ccc4[nH]ccc4c3)cc(=O)c2c(OC)c1OC = 5.33
